- Target or system: human TREM2 (Homo sapiens)
- Construct: expressed in transfected cells; host or cells: HEK293T (HEK293T-hTREM2 cells)
- Sequence (Q9NZC2 19-230): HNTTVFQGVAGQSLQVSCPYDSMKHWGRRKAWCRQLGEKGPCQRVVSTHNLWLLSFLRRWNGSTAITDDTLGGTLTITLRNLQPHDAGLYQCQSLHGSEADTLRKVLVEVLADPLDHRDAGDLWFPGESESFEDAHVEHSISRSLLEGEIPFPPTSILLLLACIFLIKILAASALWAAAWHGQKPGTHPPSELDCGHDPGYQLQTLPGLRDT
- Sequence (O43914 22-113 partner): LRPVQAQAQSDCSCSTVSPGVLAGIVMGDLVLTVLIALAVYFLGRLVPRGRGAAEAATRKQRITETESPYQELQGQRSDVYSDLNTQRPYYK
- Assay explanation: TREM2 agonist potency by cellular phosphorylation of Spleen Tyrosine Kinase (Syk), AlphaLisa, HEK293T-hTREM2 cells
- Assay type: cell-based
- Experimental parameters: hTREM2 EC50 Data (HEK293 Cells); Syk phosphorylation, AlphaLisa; read-out: hTREM2 EC50
# EC50 values compiled below

q: State, in one line, measured EC50 of Cc1nc2nc([C@H]3CCO[C@@H](c4ccc(=O)n(C)c4)C3)nc(C34CC(C(F)(F)F)(C3)C4)c2nc1C1CC1
a: < 100 nM

q: Specify reported EC50 for the molecule shown: COc1nc2c(C3CCCCC3)nc([C@H]3CCO[C@@H](c4ccc(=O)n(C)c4)C3)nc2nc1C
a: < 100 nM

q: Determine from records and report EC50 for CN1Cc2c(cc([C@H]3CCO[C@@H](c4ccc(=O)n(C)c4)C3)nc2-c2ccc(C(F)(F)F)cc2F)C1=O (single isomer, unassigned)
a: 100 to 500 nM

q: Quick one: give measured EC50 for Cc1nc2nc([C@H]3CCO[C@H](c4cnc(=O)n(C)c4)C3)nc(C34CC(C(F)(F)F)(C3)C4)c2nc1C
a: < 100 nM

q: Fill in reported EC50 for this entry: Cc1nc2nc([C@H]3CCO[C@@H](c4ccc(=O)n(C)c4)C3)nc(-c3cc(F)c(C(F)(F)F)cc3F)c2nc1C
a: < 100 nM

More entries:
q: State its EC50: C[C@@H]1CN(c2nc(-c3ccc(F)cc3F)c3sc(N(C)C)nc3n2)C[C@H](c2ccc(=O)n(N)c2)O1
a: < 100 nM

q: For Cc1nc2nc(N3C[C@@H](C)O[C@@H](c4ccc(=O)n(C)c4)C3)nc(C34CC(C#N)(C3)C4)c2nc1C , write its EC50.
a: < 100 nM

q: For the molecule CCCNn1cc([C@H]2C[C@@H](c3nc(C45CC(C(F)(F)F)(C4)C5)c4nc(C)c(C)nc4n3)CCO2)ccc1=O , give its reported EC50.
a: < 100 nM

q: Hello, please tell me recorded EC50 for this one: Cc1nc2nc([C@H]3CCO[C@@H](c4ccc(=O)n(C)c4)C3)nc(-c3ccc(F)cc3F)c2nc1C
a: < 100 nM

q: Please look at this molecule and report its EC50: Cc1cnc2c(C34CC(C(F)(F)F)(C3)C4)nc([C@H]3CCO[C@@H](c4ccc(=O)[nH]c4)C3)nc2n1
a: 100 to 500 nM

q: Hello, please tell me recorded EC50 for this one: Cc1nc2nc([C@H]3CCO[C@@H](c4ccc(=O)n(C5CCC5)c4)C3)nc(C34CC(C(F)(F)F)(C3)C4)c2nc1C
a: < 100 nM

The values you see were collected from patent US20260356841A1.
